settings: in THF, 308.15 K
measure-name: solubility (mole fraction)
Reply briefly: the number, and no unit.

Q. Identify measured solubility (mole fraction) corresponding to CC#C[C@]1(O)CC[C@H]2[C@@H]3CCC4=CC(=O)CCC4=C3[C@@H](c3ccc(N(C)C)cc3)C[C@@]21C
A. 0.000142

====

conditions: in ethyl acetate, 308.15 K
measure-name: solubility (mole fraction)
API doc: respond with a numeric literal and nothing else, no unit.

Q. Look up and state reported solubility (mole fraction) for CC#C[C@]1(O)CC[C@H]2[C@@H]3CCC4=CC(=O)CCC4=C3[C@@H](c3ccc(N(C)C)cc3)C[C@@]21C
A. 0.000392

====

conditions: in ethanol, 293.15 K
measure-name: solubility (mole fraction)

Q. Return solubility (mole fraction) for the following compound: CC#C[C@]1(O)CC[C@H]2[C@@H]3CCC4=CC(=O)CCC4=C3[C@@H](c3ccc(N(C)C)cc3)C[C@@]21C
A. 0.000244

====

conditions: in THF, 293.15 K
measure-name: solubility (mole fraction)
Answer with the value's number alone.

Q. Provide only the value of recorded solubility (mole fraction) for CC#C[C@]1(O)CC[C@H]2[C@@H]3CCC4=CC(=O)CCC4=C3[C@@H](c3ccc(N(C)C)cc3)C[C@@]21C
A. 9.3e-05

====

conditions: in n-butanol, 288.15 K
measure-name: solubility (mole fraction)
Please reply with the number alone, leaving off any unit.

Q. Hello, please tell me recorded solubility (mole fraction) for this one: CC#C[C@]1(O)CC[C@H]2[C@@H]3CCC4=CC(=O)CCC4=C3[C@@H](c3ccc(N(C)C)cc3)C[C@@]21C
A. 0.000332

====

conditions: in isopropanol, 293.15 K
measure-name: solubility (mole fraction)
Quick one: just the number, no unit, thanks!

Q. Give the value of solubility (mole fraction) reported for the following: CC#C[C@]1(O)CC[C@H]2[C@@H]3CCC4=CC(=O)CCC4=C3[C@@H](c3ccc(N(C)C)cc3)C[C@@]21C
A. 0.000358
